- Tested target: APOBEC3A (A3A) wild-type (Homo sapiens, UniProt P31941 1-199)
- Sequence (P31941 whole entry): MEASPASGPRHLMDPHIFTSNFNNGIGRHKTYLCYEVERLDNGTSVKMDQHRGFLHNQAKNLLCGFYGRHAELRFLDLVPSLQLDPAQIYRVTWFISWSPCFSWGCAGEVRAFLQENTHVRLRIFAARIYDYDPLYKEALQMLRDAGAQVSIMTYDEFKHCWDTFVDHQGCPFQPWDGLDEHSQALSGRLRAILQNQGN
- Procedure text: EMSA
Recorded endpoint: Kd

Summary for this binder, ATTATTATTATTATTATTATTTCATTTATTTATTTATTTA (ssDNA) [40-nt ssDNA JL895] : Kd is ~80 µM
